property name: melting point

Ask | Quick one: melting point for CC(C)c1ccc(-n2ccnc2S)cc1 ?
Reply | 131 to 135 °C

Ask | Follow-up item: NS(=O)(=O)CCCC(=O)O
Reply | 108 to 111 °C

Ask | Follow-up item: CN1C(=O)C(=O)N(CC(=O)O)C1=O
Reply | 191 to 193 °C

Ask | Follow-up item: Cc1c(NC(=O)CSc2nnc(N)s2)c(=O)n(-c2ccccc2)n1C
Reply | 142 to 144 °C

Ask | Follow-up item: COc1cc(C=O)cc2c1OCO2
Reply | 130 to 134 °C

Ask | Follow-up item: OCc1cnc(-c2ccccc2)[nH]1
Reply | 154 to 156 °C

Ask | Follow-up item: CCn1c(C(=O)O)cc2ccccc21
Reply | 177 to 179 °C

Ask | Follow-up item: ON=Cc1ccc(N2CCOCC2)cc1
Reply | 186 to 188 °C

Ask | Follow-up item: Cc1cc(N)ccc1C(N)=O
Reply | 154 to 156 °C

Ask | Follow-up item: CC(CS(=O)(=O)c1ccc(Br)cc1)C(=O)O (centres undefined)
Reply | 144 to 146 °C

Ask | Follow-up item: CCNC(=O)NC(=O)CCl
Reply | 138 to 140 °C

Ask | Follow-up item: O=C(O)c1csc(-c2cnn(-c3ccccc3)n2)n1
Reply | 239 to 241 °C

Ask | Follow-up item: c1ccc(CCNc2nccs2)cc1
Reply | 68 to 70 °C

Ask | Follow-up item: N#Cc1ccc(S(=O)(=O)Cl)cc1Cl
Reply | 51 to 53 °C

====

property name: melting point

Ask | Quick one: melting point for CN(C)c1cccc(-c2nnc(S)n2N)c1 ?
Reply | 209 to 211 °C

Ask | Follow-up item: O=[N+]([O-])c1ccn(CCCBr)n1
Reply | 35 to 37 °C

Ask | Follow-up item: O=C(O)c1cc(F)ccc1I
Reply | 146 to 148 °C

Ask | Follow-up item: COc1cc2ncc(O)nc2cc1OC
Reply | 266 to 268 °C

Ask | Follow-up item: NC(=NO)c1ccc(Br)o1
Reply | 129 to 131 °C

Ask | Follow-up item: O=C(CCCl)Nc1ccc(N2CCCC2=O)cc1
Reply | 194 to 196 °C

Ask | Follow-up item: CCOC(=O)Cn1ncc2ccc(N)cc21
Reply | 114 to 116 °C

====

Consider the following compounds; for each one, report its melting point.

Ask | Quick one: melting point for COc1ccccc1-c1nn(-c2ccccc2)cc1C(=O)O ?
Reply | 195 to 197 °C

Ask | Follow-up item: CSCc1nc2ccccc2n1CC(=O)O
Reply | 221 to 225 °C

Ask | Follow-up item: O=c1[nH]c2ccsc2c(=O)o1
Reply | 218 to 220 °C

Ask | Follow-up item: Cc1cc(C(=O)O)on1
Reply | 199 to 201 °C

Ask | Follow-up item: O=C(c1ccc(Cl)c(Cl)c1)N1CCNCC1
Reply | 74 to 76 °C

Ask | Follow-up item: O=Cc1ccccc1S(=O)(=O)N1CCOCC1
Reply | 97 to 99 °C

Ask | Follow-up item: CC(N)(C(N)=O)c1cccc(Cl)c1 (centres undefined)
Reply | 103 to 105 °C

Ask | Follow-up item: CC(=O)NCCC(N)=S
Reply | 99 to 101 °C

Ask | Follow-up item: O=C(O)c1cn(Cc2ccccn2)nn1
Reply | 179 to 181 °C

Ask | Follow-up item: COc1ccc(C(=O)O)nn1
Reply | 139 to 141 °C

Ask | Follow-up item: CC(C(=O)Nc1ccc(N)cc1)n1cncn1 (centres undefined)
Reply | 202 to 204 °C

Ask | Follow-up item: N#Cc1cc(Cl)ccc1CS(=O)(=O)Cl
Reply | 106 to 108 °C

Ask | Follow-up item: O=C(CC(=O)NCC1CCCO1)NCC1CCCO1 (centres undefined)
Reply | 77 to 79 °C

Ask | Follow-up item: Cc1cc(F)c(C(=O)O)cc1F
Reply | 167 to 169 °C

Ask | Follow-up item: CC(=O)N1CCC(N)CC1
Reply | 19 to 21 °C

Ask | Follow-up item: Nc1nnc(Cl)c2ccccc12
Reply | 159 to 161 °C

Ask | Follow-up item: CCOc1cc(/C=C/C(=O)O)ccc1OCc1cccnc1
Reply | 201 to 203 °C

Ask | Follow-up item: CC(C)(F)c1nc(N)nc(Cl)n1
Reply | 169 to 171 °C

Ask | Follow-up item: CC(C)Oc1cccc(CNC(=O)CCl)c1
Reply | 69 to 71 °C

Ask | Follow-up item: OC(CC1COCCN1)c1ccco1 (centres undefined)
Reply | 84 to 86 °C

Ask | Follow-up item: Cc1nn(Cc2ccc(Cl)cc2)c(C)c1C(=O)O
Reply | 188 to 190 °C

Ask | Follow-up item: NNC(=O)Cc1ccc(F)cc1
Reply | 129 to 131 °C

Ask | Follow-up item: Oc1cccc2c1NCCC2
Reply | 116 to 118 °C

Ask | Follow-up item: NC(=O)CCc1ccccc1
Reply | 100 to 102 °C

Ask | Follow-up item: CC(C)(C)OC(=O)N1CC2(CNC(=O)C2)C1
Reply | 163 to 165 °C

Ask | Follow-up item: O=C(O)/C=C/c1ccc(N2CCCS2(=O)=O)cc1
Reply | 252 to 254 °C

Ask | Follow-up item: O=C(OCc1ccccc1)N1CCCC1CS(=O)(=O)Cl (centres undefined)
Reply | 60 to 62 °C

Ask | Follow-up item: Cc1cccc(NC(=S)NN)c1C
Reply | 170 to 172 °C

Ask | Follow-up item: O=C(O)CNC(=O)c1ccc2c(c1)OCO2
Reply | 158 to 160 °C
